Here the recorded fold difference in affinity vs parental is given for each entry.
studySystem: T1, IL-1beta (UniProt P01584 117-269)
T1 construct: also called IL-1β
experimentNotes: Biacore

binder	fold difference in affinity vs parental
XPA23 Fab, heavy chain G56N (Fab, V domains shown) VH: EVQLLESGGGLVQPGGSLRLSCAASGFTFSKYFMFWVRQAPGKGLEWVSVISPSGNMTRYADSVKGRFTISRDNSKNTLYLQMNSLRAEDTAVYYCARVGYGGNSDYWGQGTLVTVSS VL: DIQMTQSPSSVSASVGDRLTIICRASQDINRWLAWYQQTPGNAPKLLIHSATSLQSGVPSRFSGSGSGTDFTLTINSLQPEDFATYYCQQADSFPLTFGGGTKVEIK	1.06 fold
XPA23 Fab, heavy chain I51K (Fab, V domains shown) VH: EVQLLESGGGLVQPGGSLRLSCAASGFTFSKYFMFWVRQAPGKGLEWVSVKSPSGGMTRYADSVKGRFTISRDNSKNTLYLQMNSLRAEDTAVYYCARVGYGGNSDYWGQGTLVTVSS VL: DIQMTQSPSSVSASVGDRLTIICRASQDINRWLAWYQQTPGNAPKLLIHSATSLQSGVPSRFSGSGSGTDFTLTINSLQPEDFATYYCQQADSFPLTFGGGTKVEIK	0.11 fold
